# reported EC50; entries follow
# Assay system: T1, hCD19-his (human CD19 recombinant protein, Pro20-Lys291, His tag at C-terminus) (human, UniProt P15391 20-291)
# T1 construct: range 20-291; also called human CD19-His
# T1 sequence (looked up): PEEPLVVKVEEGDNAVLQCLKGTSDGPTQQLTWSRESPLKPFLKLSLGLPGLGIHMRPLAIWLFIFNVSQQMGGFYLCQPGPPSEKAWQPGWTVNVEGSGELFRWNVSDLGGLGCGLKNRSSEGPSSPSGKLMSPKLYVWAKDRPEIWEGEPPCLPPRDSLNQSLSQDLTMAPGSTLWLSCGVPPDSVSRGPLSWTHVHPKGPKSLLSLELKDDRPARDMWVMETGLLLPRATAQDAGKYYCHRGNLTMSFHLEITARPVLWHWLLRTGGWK
# Assay details: ELISA, coated hCD19-His, fully humanized antibody titrated
Output spec: scalar in ng/mL, unitless text.

27F11 fully humanized antibody (recombinant, human IgG1 / kappa) (antibody, V domains shown) VH: QVQLVESGGGVVQPGRSLRLSCAASGFTFSRHGMHWVRQAPGKGLEWVAVIYYDGSNKYYVDSVKGRFTISRDNSKNTLDLQMNSLRAEDTAVYYCARRSITWNGAFDIWGQGTMVTVSS VL: DIQMTQSPSTLSASVGDRVTISCRASQSISSWLAWYQQKPGKAPKLLIYKASSLESGVPSRFSGSGSGTEFTLTISSLQPDDFATYYCQQYNSAYTFGQGTKLEIK ... 4
11H8 fully humanized antibody (recombinant, human IgG1 / kappa) (antibody, V domains shown) VH: QVQLVESGGGVVQPGRSLRLSCAASGFTFSRHGMHWVRQAPGKGLEWVAVIWYDGSNQYYVDSVKGRFTISRDNSKNTLDLQMNSLRVEDTAVYYCARRSITWYGGFDIWGQGTMVTVSS VL: DIQMTQSPSTLSASVGDRVTITCRASQSISSWLAWYQQKPGKAPKLLIYKASSLESGVPPRFSGSGSGTEFTLTISSLQPDDFATYYCQQYNSAYTFGQGTKLEIK ... 2.63

# get_value(readout='EC50', item= 31A2 fully humanized antibody (recombinant, human IgG1 / kappa) (antibody, V domains shown) VH: QVQLVESGGGVVQPGRSLRLSCAASGFTFSRHGMHWVRQAPGKGLEWVAVIWYDGSNKYYVDSVKGRFTISRDNSKNTLDLQMNSLRAEDTAVYYCARRSITWDGAFDIWGQGTMVTVSS VL: DIQMTQSPSTLSASVGDRVTISCRASQSISSWLAWYQQKPGKAPKLLIYKASSLESGVPSRFSGSGSGTEFTLTISSLQPDDFATYYCQQYNSAYTFGQGTKLEIK )
4.46
